MEASUREMENT_TARGET: Cholinesterase (Homo sapiens)
Sequence (P06276 whole entry): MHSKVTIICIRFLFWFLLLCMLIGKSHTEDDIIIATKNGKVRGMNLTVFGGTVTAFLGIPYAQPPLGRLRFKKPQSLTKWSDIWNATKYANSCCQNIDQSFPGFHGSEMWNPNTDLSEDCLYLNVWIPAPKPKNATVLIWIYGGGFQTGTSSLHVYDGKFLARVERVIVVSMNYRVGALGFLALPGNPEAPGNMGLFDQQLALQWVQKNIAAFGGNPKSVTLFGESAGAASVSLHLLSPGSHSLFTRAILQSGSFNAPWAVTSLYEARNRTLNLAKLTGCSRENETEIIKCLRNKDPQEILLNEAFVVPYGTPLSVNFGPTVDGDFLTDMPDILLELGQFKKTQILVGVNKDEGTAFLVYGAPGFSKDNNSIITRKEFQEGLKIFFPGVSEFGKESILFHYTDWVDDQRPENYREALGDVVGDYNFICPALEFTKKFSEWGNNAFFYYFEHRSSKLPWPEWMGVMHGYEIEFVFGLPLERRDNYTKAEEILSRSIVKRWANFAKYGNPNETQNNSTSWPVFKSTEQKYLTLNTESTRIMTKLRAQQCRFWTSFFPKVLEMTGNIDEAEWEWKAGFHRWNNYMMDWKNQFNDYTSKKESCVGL
ASSAY_TEXT: Inhibition of BChE in human serum assessed as hydrolysis of butyrylthiocholine at 0.1 ug/mL by Ellman's method

{"SMILES_REPR": "CC(=O)Nc1nc(Cl)c2c(ncn2[C@@H]2O[C@H](COC(C)=O)[C@@H](OCc3ccccc3)[C@@]3(OCc4ccccc4)[C@@H](OCc4ccccc4)CO[C@@H]23)n1", "inhibition [%]": 20}
{"SMILES_REPR": "CO[C@H]1O[C@@H]([C@H](N=[N+]=[N-])C(=O)OCc2ccccc2)[C@@H](OCc2ccccc2)[C@@]2(OCc3ccccc3)[C@@H](OCc3ccccc3)CO[C@@H]12", "inhibition [%]": 15}
{"SMILES_REPR": "CC(=O)Nc1nc(Cl)c2c(ncn2[C@@H]2O[C@@H]([C@@H](N=[N+]=[N-])C(=O)OCc3ccccc3)[C@@H](OCc3ccccc3)[C@@]3(OCc4ccccc4)[C@@H](OCc4ccccc4)CO[C@@H]23)n1", "inhibition [%]": 63}
{"SMILES_REPR": "CCN(C)C(=O)Oc1cccc([C@H](C)N(C)C)c1", "inhibition [%]": 76}

Values from ChEMBL document CHEMBL1154078
